study-system: various mutants of kinase EGFR (BaF3 cell lines stably transfected with kinase) (Homo sapiens, UniProt P00533, L858R/T790M)
Construct: expressed in transfected cells; host or cells: BaF3
Sequence (P00533 25-1210 T790M/L858R): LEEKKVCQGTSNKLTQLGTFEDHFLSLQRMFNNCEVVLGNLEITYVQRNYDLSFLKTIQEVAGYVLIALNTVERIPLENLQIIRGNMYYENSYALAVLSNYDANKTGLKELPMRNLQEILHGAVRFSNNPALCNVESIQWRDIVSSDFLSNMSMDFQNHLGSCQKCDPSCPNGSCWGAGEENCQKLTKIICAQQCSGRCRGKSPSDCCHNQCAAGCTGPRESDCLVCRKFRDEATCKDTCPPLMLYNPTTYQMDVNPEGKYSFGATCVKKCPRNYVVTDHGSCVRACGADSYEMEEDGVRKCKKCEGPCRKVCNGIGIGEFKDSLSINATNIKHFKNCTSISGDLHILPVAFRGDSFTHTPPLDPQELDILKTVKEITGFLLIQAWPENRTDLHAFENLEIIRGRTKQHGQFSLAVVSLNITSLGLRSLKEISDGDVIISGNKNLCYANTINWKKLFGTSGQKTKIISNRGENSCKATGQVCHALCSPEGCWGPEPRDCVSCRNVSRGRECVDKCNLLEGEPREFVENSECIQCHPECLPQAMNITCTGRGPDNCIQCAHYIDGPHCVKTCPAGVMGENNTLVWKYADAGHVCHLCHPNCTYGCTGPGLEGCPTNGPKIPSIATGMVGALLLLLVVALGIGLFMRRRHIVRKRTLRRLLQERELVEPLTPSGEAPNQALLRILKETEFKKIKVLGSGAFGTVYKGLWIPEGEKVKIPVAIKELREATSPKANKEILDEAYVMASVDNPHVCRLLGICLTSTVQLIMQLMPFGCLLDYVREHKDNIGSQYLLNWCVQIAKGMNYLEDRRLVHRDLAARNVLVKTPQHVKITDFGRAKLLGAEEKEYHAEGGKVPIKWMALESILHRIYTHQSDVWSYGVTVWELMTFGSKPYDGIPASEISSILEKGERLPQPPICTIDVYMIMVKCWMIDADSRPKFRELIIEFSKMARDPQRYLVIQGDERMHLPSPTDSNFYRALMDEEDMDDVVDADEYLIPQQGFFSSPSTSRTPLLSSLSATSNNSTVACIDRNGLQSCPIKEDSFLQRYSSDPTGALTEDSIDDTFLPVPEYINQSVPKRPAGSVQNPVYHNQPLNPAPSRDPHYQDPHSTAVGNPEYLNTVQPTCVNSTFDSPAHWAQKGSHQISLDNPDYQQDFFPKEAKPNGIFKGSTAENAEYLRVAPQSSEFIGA
assay-explanation: Growth inhibitory activity of compounds on BaF3 cell lines stably transfected with kinase (MTS, 48 h)
Assay type: cell-based
conditions-used: BaF3 cell line stably transfected with EGFR L858R/T790M, read-out: L858R/ T790M growth inhibitory activity IC50
pIC50: −log10 of the molar value.
assay-metric: pIC50

q: Recorded pIC50 for COc1cc(N2CCC(N(C)C)CC2)c(C)cc1Nc1ncc(Br)c(Nc2ccc3nccnc3c2N(C2CC2)S(C)(=O)=O)n1 , please?
a: ≥ 7.30

q: Then what about the molecule COc1cc(N2CCC(N3CCN(C)CC3)CC2)ccc1Nc1nc(Nc2ccc3nccnc3c2N(C)S(C)(=O)=O)c2occc2n1 ?
a: 5.60 to 6.30

q: Then what about the molecule COc1cc(N2CCC(N3CCN(C)CC3)CC2)c(C)cc1Nc1nc(Nc2ccc3nccnc3c2N(C)S(C)(=O)=O)c2occc2n1 ?
a: 6.30 to 7.30

q: Then what about the molecule CCc1cc(Nc2ncc(C)c(Nc3ccc4nccnc4c3N(C)S(C)(=O)=O)n2)c(OC(F)(F)F)cc1N1CCC(N2CCN(C)CC2)CC1 ?
a: ≥ 7.30

q: Then what about the molecule COc1ccc(N2CCC(O)CC2)cc1Nc1ncc(Cl)c(Nc2ccc3nccnc3c2N(C)S(C)(=O)=O)n1 ?
a: ≥ 7.30

q: Then what about the molecule CCS(=O)(=O)N(C)c1c(Nc2nc(Nc3cc(N4CCC(O)CC4)ccc3OC)ncc2Cl)ccc2nccnc12 ?
a: ≥ 7.30

----------
study-system: various mutants of kinase EGFR (BaF3 cell lines stably transfected with kinase) (Homo sapiens, UniProt P00533, T790M, form not given)
Construct: other: BaF3 cells stably transfected with EGFR Δ19Del/T790M; MTS, 48 h; other: BaF3 cell line stably transfected with EGFR Δ19Del/T790M; MTS, 48
Sequence (P00533 with tags, fused parts or gaps DEL746-750/T790M, form open): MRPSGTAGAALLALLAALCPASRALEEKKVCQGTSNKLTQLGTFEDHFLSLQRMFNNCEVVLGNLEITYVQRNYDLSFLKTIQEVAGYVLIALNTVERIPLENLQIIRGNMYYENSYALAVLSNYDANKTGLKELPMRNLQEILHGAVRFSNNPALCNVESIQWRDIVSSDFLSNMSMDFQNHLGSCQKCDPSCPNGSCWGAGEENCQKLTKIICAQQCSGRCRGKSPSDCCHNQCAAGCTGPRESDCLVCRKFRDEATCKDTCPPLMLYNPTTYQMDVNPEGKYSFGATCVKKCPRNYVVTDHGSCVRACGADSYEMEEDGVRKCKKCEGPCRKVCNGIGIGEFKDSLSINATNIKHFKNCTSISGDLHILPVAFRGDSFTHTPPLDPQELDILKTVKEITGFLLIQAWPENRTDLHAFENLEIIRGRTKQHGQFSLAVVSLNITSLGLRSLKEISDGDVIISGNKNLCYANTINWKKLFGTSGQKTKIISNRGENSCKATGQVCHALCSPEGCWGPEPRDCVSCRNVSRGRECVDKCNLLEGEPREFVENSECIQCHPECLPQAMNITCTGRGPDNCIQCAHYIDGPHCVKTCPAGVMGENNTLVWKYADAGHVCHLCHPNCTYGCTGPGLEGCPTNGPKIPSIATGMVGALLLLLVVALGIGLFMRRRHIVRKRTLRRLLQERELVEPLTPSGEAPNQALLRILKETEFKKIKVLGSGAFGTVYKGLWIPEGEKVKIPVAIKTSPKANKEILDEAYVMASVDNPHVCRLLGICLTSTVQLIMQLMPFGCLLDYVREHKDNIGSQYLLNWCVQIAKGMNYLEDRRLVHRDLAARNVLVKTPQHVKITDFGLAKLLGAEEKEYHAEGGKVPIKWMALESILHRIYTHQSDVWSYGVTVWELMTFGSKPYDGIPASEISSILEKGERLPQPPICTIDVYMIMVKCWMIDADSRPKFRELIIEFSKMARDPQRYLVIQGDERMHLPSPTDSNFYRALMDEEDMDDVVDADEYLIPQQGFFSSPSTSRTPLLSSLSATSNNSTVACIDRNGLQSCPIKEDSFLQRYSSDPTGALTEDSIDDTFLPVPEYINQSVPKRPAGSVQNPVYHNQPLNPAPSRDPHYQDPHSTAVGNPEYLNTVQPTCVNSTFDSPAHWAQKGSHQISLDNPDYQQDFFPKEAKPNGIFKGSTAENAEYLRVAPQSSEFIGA
assay-explanation: Growth inhibitory activity of compounds on BaF3 cell lines stably transfected with kinase (MTS, 48 h)
Format: cell-based
conditions-used: BaF3 cell line stably transfected with EGFR Δ19Del/T790M, read-out: Δ19Del/ T790M growth inhibitory activity IC50
pIC50: −log10 of the molar value.
assay-metric: pIC50

q: Recorded pIC50 for COc1cc(N2CCC(N(C)C)C2)c(C)cc1Nc1ncc(Br)c(Nc2ccc3nccnc3c2N(C2CC2)S(C)(=O)=O)n1 (stereo not shown) , please?
a: ≥ 7.30

q: Then what about the compound CCc1cc(Nc2ncc(C(C)C)c(Nc3ccc4nccnc4c3N(C)S(C)(=O)=O)n2)c(OC)cc1N1CCC(N2CCN(C)CC2)CC1 ?
a: ≥ 7.30

q: Then what about the compound Cc1cc(Nc2ncc(Br)c(Nc3ccc4nccnc4c3N(C)S(C)(=O)=O)n2)nn1C ?
a: 5.60 to 6.30

q: Then what about the compound CN1CCN(C2CCN(c3ccc(Nc4ncc(Br)c(Nc5ccc6nccnc6c5NS(C)(=O)=O)n4)c(F)c3F)CC2)CC1 ?
a: ≥ 7.30

q: Then what about the compound CCc1cc(Nc2ncc(Br)c(Nc3ccc4nccnc4c3N(C)S(C)(=O)=O)n2)c(OC)cc1N(C)CCN(C)C ?
a: 6.30 to 7.30

q: Then what about the compound COc1ccc(N2CCC(O)CC2)cc1Nc1ncc(C(C)C)c(Nc2ccc3nccnc3c2N(C)S(C)(=O)=O)n1 ?
a: ≥ 7.30

q: Then what about the compound COc1cc(N2CCC(N3CCN(C)CC3)CC2)c(Cc2ccccc2)cc1Nc1nc(Nc2ccc3nccnc3c2N(C)S(C)(=O)=O)c2occc2n1 ?
a: 6.30 to 7.30

q: Then what about the compound COc1cc(N2CCC(N(C)C)CC2)c(C)cc1Nc1nc(Nc2ccc3nccnc3c2N(C)S(C)(=O)=O)c2sccc2n1 ?
a: 6.30 to 7.30

q: Then what about the compound COc1ccc(N2CCC(O)CC2)cc1Nc1ncc(Br)c(Nc2ccc3nccnc3c2N(C2CC2)S(C)(=O)=O)n1 ?
a: ≥ 7.30

q: Then what about the compound CCc1cc(Nc2nc(Nc3ccc4nccnc4c3N(C)S(C)(=O)=O)c3sccc3n2)c(OC)cc1N1CCC(N(C)C)CC1 ?
a: 6.30 to 7.30

q: Then what about the compound CCc1cc(Nc2nc(Nc3ccc4nccnc4c3N(C)S(C)(=O)=O)c3sccc3n2)c(OC)cc1N1CCC(N2CCN(C)CC2)CC1 ?
a: 6.30 to 7.30

q: Then what about the compound CCc1cc(Nc2nc(Nc3ccc4nccnc4c3N(C)S(C)(=O)=O)c3sccc3n2)c(OC(F)(F)F)cc1N1CCC(N2CCN(C)CC2)CC1 ?
a: 6.30 to 7.30

q: Then what about the compound COc1cc(N2CCC(N3CCN(C)CC3)CC2)c(C)cc1Nc1nccc(Nc2ccc3nccnc3c2N(C)S(C)(=O)=O)n1 ?
a: ≥ 7.30

q: Then what about the compound COc1cc(N2CCC(N(C)C)CC2)c(C)cc1Nc1ncc(Br)c(Nc2ccc3nccnc3c2N(C2CC2)S(C)(=O)=O)n1 ?
a: ≥ 7.30

q: Then what about the compound CCc1cc(Nc2ncc(CC)c(Nc3ccc4nccnc4c3N(C)S(C)(=O)=O)n2)c(OC)cc1N1CCC(N(C)C)C1 (stereo not shown) ?
a: ≥ 7.30

q: Then what about the compound COc1cc(N2CCC(N3CCN(C)CC3)CC2)ccc1Nc1nc(Nc2ccc3nccnc3c2N(C)S(C)(=O)=O)c2cc[nH]c2n1 ?
a: 6.30 to 7.30
